- experiment.notes: Thermal stability assessment by nanoDSC
- Assay type: physicochemical
- test.context: 1 mg/mL in PBS, scan 25-100° C. at 1° C./min
observable: ONSET MELTING (°C)
Reply numerically in °C, unit not repeated.

Use these answered entries as a reference point.
[[record]]
molecule = "SEQ ID NO: 34: optimized CTGF-binding hNGAL lipocalin mutein (protein, lipocalin mutein) QDSTSDLIPAPPLSKVPLQQNFQDNQFQGKWYVVGWAGNVILREDKQPFKMSATIYELKEDKSYDVTEVVFEQKKCHYIIKTFVPGSQPGEFTLGDIKSPPGETSTLVRVVSTNYNQHAMVFFKKVSQNREFFWITLYGRTKELTSELKENFIRFSKSLGLPENHIVFPVPIDQCIDG"
value_reported = 67

[[record]]
molecule = "SEQ ID NO: 22: optimized CTGF-binding hNGAL lipocalin mutein (protein, lipocalin mutein) QDSTSDLIPAPPLSKVPLQQNFQDNQFQGKWYVVGIAGNAILRVDKQPAKMFATIYELKEDKSYDVTSVRFEAKSCVYTIKTFVPGSQPGEFTAGNIKSAPGQTSTLVRVVSTNYNQHAMVFFKHVSQNREIFVITLYGRTKELTSELKENFIRFSKSLGLPENHIVFPVPIDQCIDG"
value_reported = 59

[[record]]
molecule = "SEQ ID NO: 35: optimized CTGF-binding hNGAL lipocalin mutein (protein, lipocalin mutein) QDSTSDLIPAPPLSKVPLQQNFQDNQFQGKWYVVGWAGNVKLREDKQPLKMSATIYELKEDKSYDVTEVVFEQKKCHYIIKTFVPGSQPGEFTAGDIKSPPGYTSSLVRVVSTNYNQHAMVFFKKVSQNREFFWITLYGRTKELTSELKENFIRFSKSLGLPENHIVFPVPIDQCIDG"
value_reported = 63


Field: next molecule
Looking up SEQ ID NO: 6: optimized CTGF-binding hNGAL lipocalin mutein (protein, lipocalin mutein) QDSTSDLIPAPPLSKVPLQQNFQDNQFQGKWYVVGRAGNNQLREDKSPPKMWATIYELKEDKSYDVTHVHFSTKKCRYIIDTFVPGSQPGEFTAGAIKSGPGLTSPLVRVVSTNYNQHAMVFFKWVTQNREWFTITLYGRTKELTSELKENFIRFSKSLGLPENHIVFPVPIDQCIDG , I see its ONSET MELTING listed as 48
